%-inhibition of MAP3K3 by entry:
Target: panel of more than 300 wild-type and mutant kinases (313 kinase panel) (Homo sapiens)
Experiment: Kinase profiling in a biochemical assay panel (mobility shift assays and ELISA), %-inhibition at 1 μM; selectivity entropy
Details: kinase MAP3K3; compound at 1 μM
Use % as the unit, but write only the number.

N#CC[C@H](C1CCCC1)n1cc(-c2ncnc3[nH]ccc23)cn1 :: 36
CCCS(=O)(=O)Nc1ccc(F)c(C(=O)c2c[nH]c3ncc(-c4ccc(Cl)cc4)cc23)c1F :: 8
Cc1ccc(C(=O)Nc2ccc(CN3CCN(C)CC3)c(C(F)(F)F)c2)cc1C#Cc1cnc2cccnn12 :: 88

Name the recorded %-inhibition of MAP3K3 for "CC(C)(C)c1nc(-c2cccc(NS(=O)(=O)c3c(F)cccc3F)c2F)c(-c2ccnc(N)n2)s1" .
6

Name the recorded %-inhibition of MAP3K3 for COc1cc2nccc(Oc3ccc(NC(=O)C4(C(=O)Nc5ccc(F)cc5)CC4)cc3)c2cc1OC [cabozantinib] .
9

Name the recorded %-inhibition of MAP3K3 for "COc1cc(Nc2c(C#N)cnc3cc(OCCCN4CCN(C)CC4)c(OC)cc23)c(Cl)cc1Cl" .
91

Name the recorded %-inhibition of MAP3K3 for "CCN(CC)CCNC(=O)c1c(C)[nH]c(/C=C2\C(=O)Nc3ccc(F)cc32)c1C" .
76

###

Target: panel of more than 300 wild-type and mutant kinases (313 kinase panel) (Homo sapiens)
Experiment: Kinase profiling in a biochemical assay panel (mobility shift assays and ELISA), %-inhibition at 1 μM; selectivity entropy
Details: kinase IRAK4; compound at 1 μM
%-inhibition of IRAK4 by entry:
Use % as the unit, but write only the number.

Recorded %-inhibition of IRAK4, per entry:
CCN(CC)CCNC(=O)c1c(C)[nH]c(/C=C2\C(=O)Nc3ccc(F)cc32)c1C :: 48
COc1cc2nccc(Oc3ccc(NC(=O)C4(C(=O)Nc5ccc(F)cc5)CC4)cc3)c2cc1OC [cabozantinib] :: -4

Please turn your attention to the following entry.
Query for panel of more than 300 wild-type and mutant kinases (313 kinase panel) (Homo sapiens): what %-inhibition of IRAK4 does the record show for "CO[C@H]1C[C@@H]2CC[C@@H](C)[C@@](O)(O2)C(=O)C(=O)N2CCCC[C@H]2C(=O)O[C@H]([C@H](C)C[C@@H]2CC[C@@H](OC(=O)C(C)(CO)CO)[C@H](OC)C2)CC(=O)[C@H](C)/C=C(\C)[C@@H](O)[C@@H](OC)C(=O)[C@H](C)C[C@H](C)/C=C/C=C/C=C/1C" ?
-5.36

###

Biological target: panel of more than 300 wild-type and mutant kinases (313 kinase panel) (Homo sapiens, UniProt Q5VT25)
Test: Kinase profiling in a biochemical assay panel (mobility shift assays and ELISA), %-inhibition at 1 μM; selectivity entropy
Conditions: kinase MRCKα; 1 μM
assay_endpoint: %-inhibition of MRCKα (%)
Use % as the unit, but write only the number.

Recorded %-inhibition of MRCKα, per entry:
CO[C@H]1C[C@@H]2CC[C@@H](C)[C@@](O)(O2)C(=O)C(=O)N2CCCC[C@H]2C(=O)O[C@H]([C@H](C)C[C@@H]2CC[C@@H](OC(=O)C(C)(CO)CO)[C@H](OC)C2)CC(=O)[C@H](C)/C=C(\C)[C@@H](O)[C@@H](OC)C(=O)[C@H](C)C[C@H](C)/C=C/C=C/C=C/1C [temsirolimus] :: -1.53
N#CC[C@H](C1CCCC1)n1cc(-c2ncnc3[nH]ccc23)cn1 [ruxolitinib] :: 0.766
Cc1ccc(C(=O)Nc2ccc(CN3CCN(C)CC3)c(C(F)(F)F)c2)cc1C#Cc1cnc2cccnn12 [ponatinib] :: -0.575

Please turn your attention to the following entry.
Name the recorded %-inhibition of MRCKα for Cc1cn(-c2cc(NC(=O)c3ccc(C)c(Nc4nccc(-c5cccnc5)n4)c3)cc(C(F)(F)F)c2)cn1 [nilotinib] .
-13
